- assay-text: Growth inhibition of human MDA-MB-231 cells incubated for 96 hrs by MTS assay
- Format: functional
- condition-details: MDA-MB-231, 96 h
Condition met if GI50 is below 1 µM. Condition not met if not; exact matches included in Condition not met.

>>> assigned_category("COc1cc(/C=C\\CC/C=C/C=C(\\C)CCC(O)c2cccs2)cc(OC)c1OC (stereo not drawn)")
"Condition met"
>>> assigned_category("COc1cc(/C=C\\CC/C=C/C=C(\\C)CCC(O)c2cc3ccccc3s2)cc(OC)c1OC (stereo not drawn)")
"Condition not met"
>>> assigned_category("C=CC[C@@H](CC[C@@]1(C)C[C@H]1[C@H]1C[C@@H]1CC/C=C\\[C@@H]1CSC([C@@H]2C[C@@H]2C)=N1)OC")
"Condition not met"
>>> assigned_category("COc1cc(/C=C\\CC/C=C/C=C(\\C)CCC(O)c2cc3ccccc3o2)cc(OC)c1OC (stereo not drawn)")
"Condition met"
>>> assigned_category("COc1cc(/C=N\\OC[C@@H]2C[C@H]2CCC(C)c2cccs2)cc(OC)c1OC (stereo partly drawn)")
"Condition not met"
>>> assigned_category("COc1ccc(OC)c(C(O)CC/C(C)=C/C=C/CC/C=C\\c2cc(OC)c(OC)c(OC)c2)c1 (stereo not drawn)")
"Condition not met"
>>> assigned_category("COc1cc(/C=N\\OC[C@H]2C[C@@H]2[C@@H]2C[C@]2(C)CCC(O)c2cccs2)cc(OC)c1OC (stereo partly drawn)")
"Condition not met"
>>> assigned_category("COc1ccccc1C(O)CC/C(C)=C/C=C/CC/C=C\\c1cc(OC)c(OC)c(OC)c1 (stereo not drawn)")
"Condition met"
